Could you please report measured IC50 for the items listed next?
- Tested on: pKJ2 RNA hybridized with 40-mer deoxyribonucleotide complementary to the PPT region; RNase H
- TEST_SUMMARY: RNase H cleavage inhibition on pKJ2 RNA-DNA hybrid, phosphoimager quantitation (Example 3)
- Assay type: biochemical, HIV-1
- EXPERIMENTAL_SETUP: range of concentrations, FIG. 4, phosphoimager; read-out: concentration that inhibited the RNase H by 50%
- Excerpt: In vitro transcribed, 5'end-labeled pKJ2 RNA of 134 nucleotides in length was hybridized with a 10-fold excess of a 40-mer deoxyribonucleotide complementary to the PPT region. Volkmann, et al., Biochimie, 1993, 75, 71-78. […] Samples were ethanol-precipitated and analyzed on 10% polyacrylamide-TEE-urea gel. The gel was visualized by autoradiography and analyzed with a phosphoimager (Molecular Dynamics). […] To quantitate the effects of the oligonucleotides, the amounts of uncut RNA were determined. […]
Express your answer in nM, writing the number without its unit.

The recorded IC50 for entry TTTTGTTTTGGGGGGTGTGGTTGGG (chemistry not given here) [TFO 1', 25-mer GT triplex-forming oligonucleotide] equals 5000

The recorded IC50 for entry UUUUGUUUUGGGGGGUGUGGUUGGG (chemistry not given here) [GU1, the RNA oligonucleotide tested] equals 500

All figures here come from patent US5849900A.
